- Experiment notes: Cytotoxicity against human NCI-H2887 cells by SRB assay
- Format: functional, cell-based
Property label: IC50

Form field IC50, entry O=Cc1cn(Cc2ccc(Cl)cc2)c2ccccc12 : ≤ 3000 nM

====

- Target system: GTPase KRas (Homo sapiens)
- Sequence (P01116 whole entry, the tested form may be a part): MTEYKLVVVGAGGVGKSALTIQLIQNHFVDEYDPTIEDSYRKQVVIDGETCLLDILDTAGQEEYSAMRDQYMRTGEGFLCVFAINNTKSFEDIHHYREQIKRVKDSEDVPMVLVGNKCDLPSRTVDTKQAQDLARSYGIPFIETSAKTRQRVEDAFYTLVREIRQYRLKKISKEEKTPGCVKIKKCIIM
- Experiment notes: Inhibition of full-length human KRas4B (amino acids 1 to 188)-SOS interaction assessed as inhibition of nucleotide exchange activity
Property label: IC50 (µM)
Quick note: give the figure in µM, leave out the unit.

Cc1[nH]c2cc(Cl)cc(Cl)c2c1CCN on GTPase KRas (Homo sapiens) gives IC50 = 342

====

- Target system: Dual specificity mitogen-activated protein kinase kinase 1 (Homo sapiens, UniProt Q02750)
- Sequence (Q02750 whole entry): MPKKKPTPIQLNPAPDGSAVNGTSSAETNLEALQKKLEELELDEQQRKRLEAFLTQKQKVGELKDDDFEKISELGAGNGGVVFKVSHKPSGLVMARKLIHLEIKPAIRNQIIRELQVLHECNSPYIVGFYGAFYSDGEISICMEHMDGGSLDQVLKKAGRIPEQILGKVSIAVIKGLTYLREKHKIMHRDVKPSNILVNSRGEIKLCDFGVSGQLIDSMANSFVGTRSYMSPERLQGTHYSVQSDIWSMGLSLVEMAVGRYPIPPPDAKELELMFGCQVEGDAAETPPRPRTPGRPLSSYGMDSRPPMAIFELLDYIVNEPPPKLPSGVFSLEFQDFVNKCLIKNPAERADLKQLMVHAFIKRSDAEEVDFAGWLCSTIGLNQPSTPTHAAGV
- Experiment notes: Non-competitive inhibition of MEK1 (unknown origin) kinase activity using fluorescent peptide as substrate by fluorescence assay in presence of ATP
Property label: IC50 (µM)
Quick note: give the figure in µM, leave out the unit.

Form field IC50, entry CCC(=O)c1csc(NC(=O)[C@H]([C@@H](C)c2ccccc2)N2C(=O)N[C@H](c3ccc(OCCO)cc3)C2=O)n1 : 0.023
